Target: Cynomolgus monkey CD1a expressed on HEK-293 cells (Cynomolgus monkey, UniProt A0A2K5VQ68 17-326)
Sequence (A0A2K5VQ68 entry or part of it): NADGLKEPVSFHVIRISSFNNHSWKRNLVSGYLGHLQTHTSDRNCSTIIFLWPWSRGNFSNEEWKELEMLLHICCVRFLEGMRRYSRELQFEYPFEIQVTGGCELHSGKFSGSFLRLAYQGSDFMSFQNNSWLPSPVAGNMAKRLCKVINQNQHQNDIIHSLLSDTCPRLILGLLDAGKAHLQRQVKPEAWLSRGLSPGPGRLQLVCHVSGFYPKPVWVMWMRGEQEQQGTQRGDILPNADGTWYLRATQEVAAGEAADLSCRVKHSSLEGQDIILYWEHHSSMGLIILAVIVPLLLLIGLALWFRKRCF
Assay: flow cytometry, HEK-293 cells, 1 µg/ml antibody
Could you please report measured Fluorescence Intensity Geomean (normalized to background) for the items listed next?
Your answer is read as fold over background, so omit the unit and give the number.

Entry 16 (VR11834) (antibody, V domains shown, also called OX16; antibody 16) VH: EVQLVESGGGLVKPGGSLKLSCAASGFTFSNYAMSWVRQTPEKRLEWVAAINSNGGSAYYPDTVKDRFTISRDNAKNTLYLQMSSLRSEDTALYYCARRFYYDYGWFAYWGQGTLVTVSS VL: DIVLTQSPASLSASVGETVTITCRASENIDSYLAWYQQKQGKSPQLLVYAATLLADGVPSRFSGSGSGTQYSLKINSLQSEDVARYYCQHYYSSPWTFGGGTKLEIK has what Fluorescence Intensity Geomean (normalized to background)?
7.6

Entry 111 (VR12113) (antibody, V domains shown, also called OX111) VH: QSVEESGGRLVTPGTPLTLTCTASGFSLSTYAMSWVRQAPGKGLEWIGIISSSGSTYYASWAKGRFTISKTSTTVDLKITSPTTEDTATYFCARETWYWLDLWGQGTLVTVSS VL: AVEMTQTPASVSAAVGGTVTINCQASEDIYSNLAWYQQKPGQPPKLLIYGASTLASGVPSRFKGSGSGTEYTLTISGVQCDDAATYYCQCAYDSSSYGTPFGGGTEVVVK has what Fluorescence Intensity Geomean (normalized to background)?
12.9

Entry 116 (VR12117) (antibody, V domains shown, also called OX116) VH: QSVEESGGRLVTPGTPLTLTCTVSGFSLSNYAMSWVRQAPGKGLEWIGIIYTTGFTYYASWVKGRFTISKTSTTVDLKITSPTTEDTATYFCARGLATYVSPPTRLDLWGQGTLVTVSS VL: AQVLTQTPSPVSAAVGGTVTINCQASQSIYNSKNLAWYQQKPGQPPKLLIYSASTLASGVPSRFKGSGSGTQFTLTISDLECDDAATYYCQGEFSCSSVDCATFGGGTEVVVK has what Fluorescence Intensity Geomean (normalized to background)?
0.8

Entry 77A (VR11851) (antibody, V domains shown, also called OX77a; antibody 77a) VH: QSVEESGGRLVTPGTPLTLTCTVSGFSLSSYAMSWVRQAPGKGLEWIGIISSSGTTYYASWAKGRFTISKTSTTVDLKITSPTTEDTATYFCARVDYYSSGWGGLWGPGTLVTVSS VL: AVEMTQTPASMSAAVGGTVTIKCQASEDIYSNLAWYQQKPGQPPKLLIYGASTLASGVPSRFKGSGSGTEYTLTISGVQCDDAATYYCQCTYDTSSYGNTFGGGTEMVVE has what Fluorescence Intensity Geomean (normalized to background)?
10.6
